Test: Primary fluorescence-based thiol-reactive (MSTI) qHTS assay for identification of artifact compounds. (AID 1845221);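 note: thiol-reactive compounds lower the probe fluorescence signal; nearly all actives have a fitted effect of over 65% in size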
Settings: MSTI thiol-reactivity probe, 1 h; series mostly up to 53.8 µM
Inconclusive results are not listed. The source made the active and inactive calls. Calls come from the whole dose curve; as a rule, active = well fitted inhibition curve with a large enough effect; inconclusive = small, poorly fitted or top-dose-only effect; inactive = no such curve, though single readings can be large or run the other way.
Endpoint Label: activity change, negative = thiol reactive

Retrieve activity change, negative = thiol reactive measured for C[C@@H]1CC[C@]2(C(=O)O[C@@H]3O[C@H](CO[C@@H]4O[C@H](CO)[C@@H](O)[C@H](O)[C@H]4O)[C@@H](O)[C@H](O)[C@H]3O)CC[C@]3(C)C(=CCC4[C@@]5(C)CC[C@H](O)[C@](C)(C(=O)O)C5CC[C@]43C)[C@@H]2[C@]1(C)O (some centres not stated) and print it.
22.8% [at 11.5 µM] (inactive)

Retrieve activity change, negative = thiol reactive measured for C=CC(C)(CC/C=C(\C)C(=O)OC[C@H]1O[C@@H](OC(C)(C=C)CC/C=C(\C)C(=O)O[C@H]2[C@H](O)[C@@H](O)[C@H](OC(C)(C=C)CC/C=C(\C)C(=O)O)O[C@@H]2CO)[C@H](O)[C@@H](O)[C@@H]1O)O[C@@H]1O[C@H](CO)[C@@H](O)[C@H](O)[C@H]1O (some centres not stated) and print it.
79.7% [at 11.5 µM] (inactive)

Retrieve activity change, negative = thiol reactive measured for C[C@H]1CC[C@@]2(OC1)O[C@H]1CC3C4CC[C@H]5C[C@@H](O[C@@H]6O[C@H](CO)[C@H](O[C@@H]7O[C@H](CO)[C@@H](O)[C@H](O[C@@H]8OC[C@@H](O)[C@H](O)[C@H]8O)[C@H]7O[C@@H]7O[C@H](CO)[C@@H](O)[C@H](O)[C@H]7O)[C@H](O)[C@H]6O)[C@H](O)C[C@]5(C)C4=CC(=O)[C@]3(C)[C@H]1[C@@H]2C (some centres not stated) and print it.
203% [at 11.5 µM] (inactive)

Retrieve activity change, negative = thiol reactive measured for `NC(=O)[C@H](Cc1ccccc1)NC(=O)[C@H](CCCN=C(N)N)NC(=O)C12CC3CC(CC(C3)C1)C2` and print it.
37.2% [at 11.5 µM] (inactive)

Retrieve activity change, negative = thiol reactive measured for `CC(C)CC(=O)O[C@@H]1O[C@H](CO)[C@@H](O[C@H]2O[C@H](C)[C@@H](N[C@H]3C=C(CO)[C@@H](O[C@H]4O[C@H](CO)[C@@H](O[C@H]5O[C@H](CO)[C@@H](O[C@H]6O[C@H](CO)[C@@H](O)[C@H](O)[C@H]6O)[C@H](O)[C@H]5O)[C@H](O)[C@H]4O)[C@H](O)[C@H]3O)[C@H](O)[C@H]2O)[C@H](O)[C@H]1O` and print it.
7.36% [at 11.5 µM] (inactive)

Retrieve activity change, negative = thiol reactive measured for CC1(C)CC[C@]2(C(=O)O[C@@H]3O[C@H](CO)[C@@H](O)[C@H](O)[C@H]3O)CC[C@]3(C)C(=CCC4[C@@]5(C)CC[C@H](OC6OC(C(=O)O)C(OC7OC(CO)C(O)C(O)C7O)C(O)C6O)C(C)(C)C5CC[C@]43C)C2C1 (some centres not stated) and print it.
280% [at 11.5 µM] (inactive)

Retrieve activity change, negative = thiol reactive measured for C[C@@H]1O[C@@H](O[C@H]2[C@H](O[C@H]3[C@H](O[C@H]4CC[C@@]5(C)C(CC[C@]6(C)C5CC=C5[C@@H]7CC(C)(C)C[C@@H](O)[C@]7(C)CC[C@]56C)[C@@]4(C)CO)O[C@H](C(=O)O)[C@@H](O)[C@@H]3O)O[C@H](CO)[C@H](O)[C@@H]2O)[C@H](O)[C@H](O)[C@H]1O (some centres not stated) and print it.
67.3% [at 11.5 µM] (inactive)
